- tested_target: equine butyrylcholinesterase (Equus caballus, UniProt P81908)
- Sequence (P81908 whole entry): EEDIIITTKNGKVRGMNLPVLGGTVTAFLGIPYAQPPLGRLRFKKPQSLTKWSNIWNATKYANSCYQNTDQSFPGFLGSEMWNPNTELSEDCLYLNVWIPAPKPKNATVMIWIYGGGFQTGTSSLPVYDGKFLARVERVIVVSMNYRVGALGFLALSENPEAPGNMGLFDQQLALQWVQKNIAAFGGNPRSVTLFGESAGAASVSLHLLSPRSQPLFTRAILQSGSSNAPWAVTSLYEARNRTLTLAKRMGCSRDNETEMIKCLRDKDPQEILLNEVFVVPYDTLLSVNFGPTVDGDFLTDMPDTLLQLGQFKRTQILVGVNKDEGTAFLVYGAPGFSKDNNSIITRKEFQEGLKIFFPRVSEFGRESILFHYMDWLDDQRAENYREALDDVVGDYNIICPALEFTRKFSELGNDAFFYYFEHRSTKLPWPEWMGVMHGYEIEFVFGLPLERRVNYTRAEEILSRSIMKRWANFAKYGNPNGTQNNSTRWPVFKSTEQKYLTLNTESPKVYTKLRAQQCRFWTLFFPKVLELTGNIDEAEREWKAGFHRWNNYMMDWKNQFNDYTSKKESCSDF
- test_protocol: Butyrylcholinesterase inhibition
- Type: biochemical
measurement_name: IC50

So, `CCCC/C=N/NC(=O)COc1ccc(Sc2ccc(OCC(=O)N/N=C/CCCC)cc2)cc1` ? Its IC50 was 103 µM

So, `CCC/C=N/NC(=O)COc1ccc(Sc2ccc(OCC(=O)N/N=C/CCC)cc2)cc1` ? Its IC50 was 101 µM

----------
In this section, each of the compounds is paired with its reported pIC50.
- tested_target: electric eel acetylcholinesterase (type-IV-S) (Electrophorus electricus)
- Sequence (O42275 24-633): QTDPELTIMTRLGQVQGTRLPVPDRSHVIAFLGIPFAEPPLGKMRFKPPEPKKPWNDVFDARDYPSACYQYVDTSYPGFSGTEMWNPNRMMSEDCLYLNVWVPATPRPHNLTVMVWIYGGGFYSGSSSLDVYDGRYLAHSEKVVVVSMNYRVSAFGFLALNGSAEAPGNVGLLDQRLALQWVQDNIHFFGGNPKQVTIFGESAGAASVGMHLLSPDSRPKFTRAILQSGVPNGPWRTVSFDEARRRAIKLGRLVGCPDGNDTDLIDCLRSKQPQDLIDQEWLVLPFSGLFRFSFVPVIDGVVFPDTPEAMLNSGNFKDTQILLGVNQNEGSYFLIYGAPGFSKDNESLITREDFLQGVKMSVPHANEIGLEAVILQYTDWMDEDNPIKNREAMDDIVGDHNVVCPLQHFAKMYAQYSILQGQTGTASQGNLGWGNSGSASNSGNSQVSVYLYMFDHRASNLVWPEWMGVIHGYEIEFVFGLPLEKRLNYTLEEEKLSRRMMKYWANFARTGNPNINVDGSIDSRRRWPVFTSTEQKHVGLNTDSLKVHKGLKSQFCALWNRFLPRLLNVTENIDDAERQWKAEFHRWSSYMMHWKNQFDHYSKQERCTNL
- test_protocol: biochemical
- Type: biochemical
Schema: pIC50 number; meaning minus log10 of the concentration expressed in molar units.

>  <compound>
CCCC/C=N/NC(=O)COc1ccc(Sc2ccc(OCC(=O)N/N=C/CCCC)cc2)cc1 [4x]

>  <pIC50>
3.73

$$$$

Turning to the following compound.
So, CCC/C=N/NC(=O)COc1ccc(Sc2ccc(OCC(=O)N/N=C/CCC)cc2)cc1 [4y] ? Its pIC50 was 3.91
